assay: yeast display, Sf9 membrane polyspecificity reagent, FACS + sequencing; frameworks hold sequencing errors
Metric: polyreactivity (PSR sort gate)

Reference set (4 entries):
- Chain sequence: "QVQLVESGGGLVQAGGSLRLSCAASGFTFSYYAMGWYRQAPGKERELVAAIRGGGSTYADSVKGRFTISRDNAKNTVYLQMHSLKPEDTAVYYCAARYSGSPYPTRRYDYWGQGTQVTVSS"
  polyreactivity (PSR sort gate): "high polyreactivity"
- Chain sequence: "QVQLVESGGGLLQAGGSLRLSCAASGRIFYGYTMVRYRQAPGKERELVASITIRGSRTYYADSVKGRFTISRDNAKNTVYLQMISQKPEDTAVSYCAADFVPARTVHRYDYWGQGTQVTVSS"
  polyreactivity (PSR sort gate): "low polyreactivity"
- Chain sequence: "QVQLEESGGGLVQAGGSLRLSCAASGRTFYIYVMGWYRPAPGKERELVASITKRVGGTFYADSVKGRFTISGDNAKNTVYLQMNSLKPEDTAVYYCNARARKSIRVGGYNYWGQGTQVTVSS"
  polyreactivity (PSR sort gate): "high polyreactivity"
- Chain sequence: "QVQLVESGGGLVQAGGSLRLSCAASGITFSPSAMGWCRQAPGKERELVAAITSGGSTNYADSVKGRFTISRDNAKNTVYLQMNSLKPEDTAVYYCAAGRWPAPWYTRNYWGQGTQVTVSS"
  polyreactivity (PSR sort gate): "low polyreactivity"

Kindly review the next sequence as well.
// polyreactivity (PSR sort gate) value for QVQLVESGGGLVQAGGSLRLSCAASGSIFLINAMGWYRQAPGKERELVAAISWSGGSTSYADSVKGRFTISRDNAKNTVYFQMNSLKPEDTAVFYCAAESISYRPGYDYWRQGTQVTVSS : low polyreactivity

###

test: yeast display, Sf9 membrane polyspecificity reagent, FACS + sequencing; frameworks hold sequencing errors
Metric: polyreactivity (PSR sort gate)

- Chain sequence: "QVQLVESGGGLVQAGGSLRLSCAASGSTFTQYAMGWYRQAPGKERELVAAINSRGDSTYYADSVKGRFTISRDNAKNTVYLQMNSLKPEDTAVYYCAATGYLSYYQQDLWLEYYYWGQGTQVTVSS"
  Obs value: "low polyreactivity"
- Chain sequence: "QVQLVESGGGLVQAGGSLRLSCPASGRTMVLNMGCYRHAPGKERELVATINSGGSTYYADSVKGRFTISRDNAKNTVYLQMNSLKPEDTAVYYCAVLSSDGKFDYWGQGTQVTVSS"
  Obs value: "low polyreactivity"
- Chain sequence: "QVQLVESGGGLVQAGGSLRLSCAASGSTFKSYAMGWYRQAPGKERELVAAITHRGSTYYADSVKGRFTISRDNAKNTVDLQMNSLKPEDTAVYYCNVRRIGNGRRVDYWGQGTQVTVSS"
  Obs value: "high polyreactivity"
- Chain sequence: "QVQLVESGGGLVQAGGSLRLSCAASGRIFVDNAMGWYRQAPGKERELVATISWSGGSTYADSVKGRFTISRDNAKNTVYLQMNSLKPEDTAVYYCAADGSWQFYTLYQEFDYWGQGTQVTVSS"
  Obs value: "low polyreactivity"

// polyreactivity (PSR sort gate) value for QVQVVDSGGGLVQAGGSLRLSCAASGRTFIGNAMGWYRQAPGKERELVATITTSAGTTYYADSVKGRITISRDNAKITVYVQMLSLKPEDTAVYYCAADASQSEGDYWGQGTQVTVAS : high polyreactivity

###

experiment: yeast display, Sf9 membrane polyspecificity reagent, FACS + sequencing; frameworks hold sequencing errors
Metric: polyreactivity (PSR sort gate)

- Chain sequence: "QVQLVESGGGLVQAGGSLRLSCAASGFTFKGNAMGWYRQAPGKERELVAGISRSGRTYYADSVKGRFTISRDNAKNTVYLQMNSLKPEDTAVYYCNARNQGWASLPTMGYWGQGTQVTVSS"
  Obs value: "high polyreactivity"
- Chain sequence: "QVQLVESGGGLVQAGGSLRLSCAASGFTFGYYAMGWYRQAPGKERELVAAISKRGGSTYYADSVKGRFTISRDNAKNTVYLQMNSLKPEDTAVYYCATRYTGYPFYGYDYWGQGTQVTVSS"
  Obs value: "high polyreactivity"
- Chain sequence: "QVQLVESGGGLVQAGGSLRLSCAASGSTFGKYAMGWYRPAPGKERELVAGITYSGGSTYYADSVKGRFTISRDNAKNTVYLQMNSLKPEDTAVYYCAADGSYYTDFVASKYDYWGQGTQVTVSS"
  Obs value: "low polyreactivity"
- Chain sequence: "QVQLQESGGGLVQASGSIFHEPNMGWHRQAPGKERELVATISDGAITNYADSVKGRFTISRDNAKNTVYLQMNSLKPEDTAVYYCAVVVHLYTDLRYWGQDTQVTVSS"
  Obs value: "high polyreactivity"
- Chain sequence: "QVQLVESGGGLFQAGGSRRLICSASGFTFASNAMGWYRQAPGKERELVAAITSRGGGTYYADSVKGRFTISRDNAKNTVYLQMNSLKPEDTAVYYCNVVYGVRYFNSRGYYYWGQGTQVTVSS"
  Obs value: "high polyreactivity"

// polyreactivity (PSR sort gate) value for QVQLVESGGGLVQAGGSLRLSCAASGRTLPFNAMGWYRQAPGKERELVAAITRGGSTNYADSVKGRFTISRDNAKNTVYLQMNSLKPEDTAVYYCAARRYAWYGYRAYDYWGQGTQVTVSS : high polyreactivity

// polyreactivity (PSR sort gate) value for QVQLVESWGGLVQARGRLRLSFAASGSTYQNAMRCYRQAPGKEREFVAAISWSGGSTYYGDSVKGRFTISRDNAKNTVYLQMNSLKPEDTAVYYCAAYSYFSPWYDYWGQGTQVTVSS : high polyreactivity

// polyreactivity (PSR sort gate) value for QDQLVESVGGVVQAGGSLRLSCAASGRIIRTYAMGWYRQAPGKERELVATISYSSGRTYYADSVKGRFTISRDNAKNTVYLQMNSLKPEDTAVYYCARRRRSGSRQYYYWGQGTQVTVSS : high polyreactivity

// polyreactivity (PSR sort gate) value for QVQLVESGGGLVQAGGSLRLSCAASGSTFLYYAMGWYRQAPGKERELVAVITGAGGTNYADSVKGRFTISRDNAKKTVYLQMNSLKPEDTAVYYCAARSPGTRWGDYDYWGQGTQVTVSS : low polyreactivity

// polyreactivity (PSR sort gate) value for QVQLVESGGGLVQAGGSLRLSCAASGFTFDGYAMGWYRQAPGKERELVAAISQSGGSTYYADSVKGRVTISRDNAKNTVYLQMNSLKPEDTAVYYCNAYTGYRIRYDYWGQGTQVTVSS : high polyreactivity

// polyreactivity (PSR sort gate) value for QVQLVDSGGGLVQAGGSLRLSCAASGRLFDRNAMGWYRQGPGKERELVARIDPGDDTNYSYSVTGRFTISRDNAKNTVYLQMNSLKPEDTAVYYCATDPDYVLYRTAYYEYDYWGKGTQVTVSS : low polyreactivity

###

experiment: yeast display, Sf9 membrane polyspecificity reagent, FACS + sequencing; frameworks hold sequencing errors
Metric: polyreactivity (PSR sort gate)

Reference set (10 entries):
- Chain sequence: "QVQLVESGGGLVQAGGSLRLSCAASGSTFKRNAMGWYRQAPGKERELVAAISWSGGSTYYADSVKGRFTISRDNAKNTVYLQMNSLKPEDTAVYYCNADHPFPQYEGGSWGQGTQVTVSS"
  Obs value: "low polyreactivity"
- Chain sequence: "QDQLVESVGGLDQAGGSLRLSCAASGRIFVHNAMGWYRQAPGKEREFVAAISLRGGSTYYADSVKGRFTISRDNAKNTVYLQMNSLKTEDTAVYYCAAVPAHFYGFDYCGQGTQVTVSS"
  Obs value: "low polyreactivity"
- Chain sequence: "QVQLVESGGGLVQAGGSLRLSCAASGFIFRRYAMGWYRQAPGKERELVAAITRSGGSTYYADSVKGRFTISRDNAKNTVYLQMNSLKPEDTAVYYCAAPYFGANGKPEYGYWGQGTQVTVSS"
  Obs value: "high polyreactivity"
- Chain sequence: "QVQLVESGGGLVQAGGSLRLSCAASGRTFEIYAMGWYRHAPGKERELVAAISSSGGSTYYADSVKGRFTISRDNAKNTVYLQMNSLKPEDTAVYYCAARYRATLTRTRVGYWGQGTQLTVSS"
  Obs value: "high polyreactivity"
- Chain sequence: "QVQLVESGGGLVQAGGSLRLSCAASGRIFTRYAMGWYRQAPGKERELVATISRGGNTNYADSVKGRFTISRDNAKNTVYLQMNSLKPEDTAVYYCAKYPVSRVGGYGYWGQGTQVTVSS"
  Obs value: "low polyreactivity"
- Chain sequence: "QVQLVESGGGLVQAGGSLRLSCAASGFTFGTYAMGWYRQAPGKERELVARISRRSGSTYYADSVKGRFTISRDKAKNTVYLQMNSLKPEDTAVYYCAADSRAKRYYWGQGTQVTVSS"
  Obs value: "high polyreactivity"
- Chain sequence: "QVQLVDSGGGLVQAGGSLRLSCAASGRTYDTNAMGWNRQAPRKETELVAVITARGGNTSYADSVKGRFTISRDNAKNTVYLQMNSLKPEDTAVYYCAALYFKVGYYTYEYWGQGTQVTVSS"
  Obs value: "low polyreactivity"
- Chain sequence: "QVQLVESGGGLFQAGGSLRLSCAASGSIFVRNAMGWYRKATGKERELVAGISATGGSTYYADSVKGRFTISRDNAKITVYFQMKSLKPEDTAVYYCAKKVSTRFARYRYDYWGQVTQVTVSS"
  Obs value: "high polyreactivity"
- Chain sequence: "QVQLVESGGGLVQAGGSLRLSCAASGSIFATNSMGWYRQAPGKERELVAAISRSGASTYYADSVKGRFTISRDNAKNTVYLQMNSLKPEDTAVYYCNKVLYRDAYHSYCFDYWGQGTQVTVSS"
  Obs value: "high polyreactivity"
- Chain sequence: "QVQLVESGGGLVQAGGSLRLSCAASGSTFKRNAMGWYRQAPGKERELVAAISSSGGRTYYADSVKGRFTISRDNAKNTVYLQMNSLKPEDTAVYYCAAGIRTSAGYDYWGQGTQVTVSS"
  Obs value: "high polyreactivity"

Kindly review the next sequence as well.
// polyreactivity (PSR sort gate) value for QVQLVESGGGLVQAGGSLRLSCAASGRTSRHYAMGWYRQAPGKERELVAAISRSGGSTYYADSVKGRFTISRDNAKNTFYLQMNILKPDDSAVYYCNKDLKYYTSTYDYWGQGTQVTVSS : high polyreactivity
